# target-under-test: Voltage-gated inwardly rectifying potassium channel KCNH2 (Homo sapiens)
# assay-method-text: Human Ether-a-go-go-Related Gene (hERG) channel small molecule antagonists: fluorescence cell-based qHTS assay (AID 1671200);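 note: hERG-expressing U2OS cells given a thallium stimulus after FluxOR II dye loading; nearly all actives have a fitted effect of over 50% in size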
# condition: hERG-U2OS cells, FluxOR thallium flux fluorescence; series mostly up to 76.8 µM
# Source text: National Center for Advancing Translational Sciences [NCATS] U.S. Environmental Protection Agency [EPA] National Institutes of Environmental Health Sciences [NIEHS] National Toxicology Program [NTP] U.S. Food and Drug Administration [FDA] Mutations in the hERG channel cause Long QT (LQT) syndrome. LQT syndrome is a cardiac disorder which can cause ventricle arrhythmia and sudden death. Additionally, compounds which block the hERG channel can cause acquired LQT syndrome. […]
Inconclusive results are not listed. Active and inactive are the calls of the source. Calls come from the whole dose curve; as a rule, active = well fitted inhibition curve with a large enough effect in the repeat runs; inconclusive = weak or mixed curves; inactive = flat fitted curve, though single readings scatter.
property-name: activity change, negative = inhibition

compound=BrCCc1ccccc1 test_value=inactive
compound=CC[C@H](N)c1ccccc1 test_value=inactive
compound=CCOc1cc(OP(=S)(OC)OC)nc(CC)n1 test_value=inactive
compound=CCCCS(=O)(=O)Cl test_value=inactive
compound=NC1(c2ccccc2)CCCCC1 test_value=inactive
compound=CON(C)C(=O)Nc1ccc(Br)cc1 test_value=inactive
compound=O=C(O)c1c(Cl)ccc2cc(Cl)cnc12 test_value=inactive
compound=COC(=O)c1ccc(CBr)cc1 test_value=inactive

q: Bench note: what activity change, negative = inhibition did CCCCOC(C)=O show?
a: inactive

q: Bench note: what activity change, negative = inhibition did CCOC1Oc2ccc(OS(C)(=O)=O)cc2C1(C)C (stereo not given) show?
a: inactive
